The measurements presented in this section are drawn from patent US20240124605A1.

# TARGET: T1, CD123-Fc (Sino Biological) (human, UniProt P26951 19-305)
# T1 construct: Bought reagent; not shown: Fc of the bought fusion (detected with anti-human Fc, captured on AHC sensor)
# T1 sequence: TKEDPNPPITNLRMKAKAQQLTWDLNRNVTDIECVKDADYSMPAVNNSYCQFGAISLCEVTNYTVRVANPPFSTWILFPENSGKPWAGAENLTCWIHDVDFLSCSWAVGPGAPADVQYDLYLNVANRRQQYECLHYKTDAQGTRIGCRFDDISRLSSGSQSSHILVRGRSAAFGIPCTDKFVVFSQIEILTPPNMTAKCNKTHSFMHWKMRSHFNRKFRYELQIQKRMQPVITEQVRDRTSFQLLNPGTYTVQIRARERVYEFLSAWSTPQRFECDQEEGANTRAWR
# MEASUREMENT_NOTES: BLI (Octet), CD123-Fc captured on AHC sensor, Adapter 500-0.69 nM in solution, global 1:1 fit, 25 C
# kon values compiled below
Could you give me the number in M⁻¹ s⁻¹? Just the number is fine.

Adapter protein comprising the 6T1D D domain and a P26(Q26-V229) AFP polypeptide (designed binder, also called parental D domain (6T1D); not shown: His tag (purified on Ni-Sepharose)) MGSWDEFGRRLYAIEWQLYALGGTEAELAAFEKEIAAFESELQAYKGKGNPEVEKLREIAAVIRENLQAYRHNQESQALAKRSCGLFQKLGEYYLQNAFLVAYTKKAPQLTSSELMAITRKMAATAATCCQLSEDKLLACGEGAADIIIGHLCIRHEMTPVNPGVGQCCTSSYANRRPCFSSLVVDETYVPPAFSDDKFIFHKDLCQAQGVALQTMKQEFLINLVKQKPQITEEQLEAVIADFSGLLEKCCQGQEQEVCFAEEGQKLISKTRAALGV ... 139000
Adapter protein comprising the 8W9C D domain and a P26(Q26-V229) AFP polypeptide (designed binder, also called wild type; not shown: His tag (purified on Ni-Sepharose)) MGSWDEFGRRLYAIEWRLYALGGSEAELAAFEKEIAAFESELQAYKGKGNPEVEKLREIAAVIRSNLQAYRHNQESQALAKRSCGLFQKLGEYYLQNAFLVAYTKKAPQLTSSELMAITRKMAATAATCCQLSEDKLLACGEGAADIIIGHLCIRHEMTPVNPGVGQCCTSSYANRRPCFSSLVVDETYVPPAFSDDKFIFHKDLCQAQGVALQTMKQEFLINLVKQKPQITEEQLEAVIADFSGLLEKCCQGQEQEVCFAEEGQKLISKTRAALGV ... 177000
Adapter protein comprising the 6K4C D domain and a P26(Q26-V229) AFP polypeptide (designed binder, also called 6T1D(D5A); not shown: His tag (purified on Ni-Sepharose)) MGSWAEFGRRLYAIEWQLYALGGTEAELAAFEKEIAAFESELQAYKGKGNPEVEKLREIAAVIRENLQAYRHNQESQALAKRSCGLFQKLGEYYLQNAFLVAYTKKAPQLTSSELMAITRKMAATAATCCQLSEDKLLACGEGAADIIIGHLCIRHEMTPVNPGVGQCCTSSYANRRPCFSSLVVDETYVPPAFSDDKFIFHKDLCQAQGVALQTMKQEFLINLVKQKPQITEEQLEAVIADFSGLLEKCCQGQEQEVCFAEEGQKLISKTRAALGV ... 197000
Adapter protein comprising the 3F4N D domain and a P26(Q26-V229) AFP polypeptide (designed binder, also called 6T1D(N50S); not shown: His tag (purified on Ni-Sepharose)) MGSWDEFGRRLYAIEWQLYALGGTEAELAAFEKEIAAFESELQAYKGKGSPEVEKLREIAAVIRENLQAYRHNQESQALAKRSCGLFQKLGEYYLQNAFLVAYTKKAPQLTSSELMAITRKMAATAATCCQLSEDKLLACGEGAADIIIGHLCIRHEMTPVNPGVGQCCTSSYANRRPCFSSLVVDETYVPPAFSDDKFIFHKDLCQAQGVALQTMKQEFLINLVKQKPQITEEQLEAVIADFSGLLEKCCQGQEQEVCFAEEGQKLISKTRAALGV ... 213000
Adapter protein comprising the 0C8S D domain and a P26(Q26-V229) AFP polypeptide (designed binder, also called 0085; 6T1D(G8S, K48E, N50S, I59L); not shown: His tag (purified on Ni-Sepharose)) MGSWDEFSRRLYAIEWQLYALGGTEAELAAFEKEIAAFESELQAYKGEGSPEVEKLRELAAVIRENLQAYRHNQESQALAKRSCGLFQKLGEYYLQNAFLVAYTKKAPQLTSSELMAITRKMAATAATCCQLSEDKLLACGEGAADIIIGHLCIRHEMTPVNPGVGQCCTSSYANRRPCFSSLVVDETYVPPAFSDDKFIFHKDLCQAQGVALQTMKQEFLINLVKQKPQITEEQLEAVIADFSGLLEKCCQGQEQEVCFAEEGQKLISKTRAALGV ... 146000

Recorded kon of Adapter protein comprising the 5B1Q D domain and a P26(Q26-V229) AFP polypeptide (designed binder, also called 6T1D(G8S, L21Q, K48E, N50S, I59L); not shown: His tag (purified on Ni-Sepharose)) MGSWDEFSRRLYAIEWQLYAQGGTEAELAAFEKEIAAFESELQAYKGEGSPEVEKLRELAAVIRENLQAYRHNQESQALAKRSCGLFQKLGEYYLQNAFLVAYTKKAPQLTSSELMAITRKMAATAATCCQLSEDKLLACGEGAADIIIGHLCIRHEMTPVNPGVGQCCTSSYANRRPCFSSLVVDETYVPPAFSDDKFIFHKDLCQAQGVALQTMKQEFLINLVKQKPQITEEQLEAVIADFSGLLEKCCQGQEQEVCFAEEGQKLISKTRAALGV , please.
187000
